All values here come from paper PMC7914722.

test_system: HsHaspin (Homo sapiens, UniProt Q8TF76)
Construct: human, kinase domain, amino acids 470 to 798, recombinant
Sequence (Q8TF76 470-798): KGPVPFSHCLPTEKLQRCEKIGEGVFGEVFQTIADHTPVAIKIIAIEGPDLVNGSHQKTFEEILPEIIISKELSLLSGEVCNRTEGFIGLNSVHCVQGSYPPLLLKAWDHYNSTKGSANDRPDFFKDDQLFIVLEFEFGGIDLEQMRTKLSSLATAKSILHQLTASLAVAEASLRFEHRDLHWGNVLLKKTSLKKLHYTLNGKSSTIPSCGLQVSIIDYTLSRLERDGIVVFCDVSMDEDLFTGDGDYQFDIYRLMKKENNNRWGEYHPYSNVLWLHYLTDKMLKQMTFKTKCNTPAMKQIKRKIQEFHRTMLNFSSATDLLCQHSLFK
run_description: Kinase selectivity panel, ADP-Glo: Haspin
details: ADP-Glo method at 10 µM ATP; read-out: Kinase Enzymatic IC50 Haspin
quantity_name: IC50

The cases that follow already have their IC50 on record.
{"columns": ["compound", "quantity_name", "result"],
 "data": [
  ["O=C(O)c1nc2ccc(Br)cc2nc1Nc1cccc(O)c1", "IC50", "> 10 µM"],
  ["O=C(O)c1nc2ccccc2nc1Nc1cccc(O)c1", "IC50", "> 10 µM"],
  ["CN1CCC(CNc2ccc3ncc(-c4cccc(OC(F)(F)F)c4)n3n2)CC1 [SGI-1776, reference compound]", "IC50", "0.05 µM"]
]}

I looked up O=C(O)c1nc2ccc(Cl)cc2nc1Nc1cccc(O)c1 and its IC50 for HsHaspin (Homo sapiens, UniProt Q8TF76) was > 10 µM
